Exercise: for every item that follows, state its recorded TC50 (concentration reducing cell viability by 50%).
test system: HEK-293T-ACE2^h cells; experiment: MTT cytotoxicity assay on host cells (4 h); type: cell-based, human; details: MTT, 4 h

Req: Find the recorded TC50 (concentration reducing cell viability by 50%) belonging to CC1OC(OC2C(c3c(O)cc(O)c4c(=O)cc(-c5ccc(O)cc5)oc34)OC(CO)C(O)C2O)C(O)C(O)C1O (stereo not shown) [compound 6, Vitexin-2″-O-rhamnoside] and report it.
Resp: >500 µM

Req: Find the recorded TC50 (concentration reducing cell viability by 50%) belonging to O=c1c(O[C@@H]2O[C@H](CO)[C@@H](O)[C@H](O)[C@H]2O)c(-c2ccc(O)c(O)c2)oc2cc(O)cc(O)c12 and report it.
Resp: >500 µM

Req: Find the recorded TC50 (concentration reducing cell viability by 50%) belonging to O=C(O[C@@H]1Cc2c(O)cc(O)cc2O[C@@H]1c1ccc(O)c(O)c1)c1cc(O)c(O)c(O)c1 [compound 24, (-)-Epicatechin gallate] and report it.
Resp: >500 µM

Req: Find the recorded TC50 (concentration reducing cell viability by 50%) belonging to O=c1c(O)c(-c2ccc(O)c(O)c2)oc2cc(O)cc(O)c12 and report it.
Resp: >500 µM

Req: Find the recorded TC50 (concentration reducing cell viability by 50%) belonging to O=c1c(O)c(-c2cc(O)c(O)c(O)c2)oc2cc(O)cc(O)c12 and report it.
Resp: >500 µM

Req: Find the recorded TC50 (concentration reducing cell viability by 50%) belonging to O=c1cc(-c2ccccc2)oc2cc(O[C@@H]3O[C@H](CO[C@@H]4O[C@H](CO)[C@@H](O)[C@H](O)[C@H]4O)[C@@H](O)[C@H](O)[C@H]3O)c(O)c(O)c12 and report it.
Resp: >300 µM

Req: Find the recorded TC50 (concentration reducing cell viability by 50%) belonging to O=C(O)[C@H]1O[C@@H](Oc2cc3oc(-c4ccccc4)cc(=O)c3c(O)c2O)[C@H](O)[C@@H](O)[C@@H]1O and report it.
Resp: >500 µM

Req: Find the recorded TC50 (concentration reducing cell viability by 50%) belonging to Oc1cc(O)c2c(c1)OC(c1ccc(O)c(O)c1)C(O)C2 (racemic) [compound 21, (±)-Catechin] and report it.
Resp: >500 µM

Req: Find the recorded TC50 (concentration reducing cell viability by 50%) belonging to O=C(O[C@@H]1Cc2c(O)cc(O)cc2O[C@H]1c1cc(O)c(O)c(O)c1)c1cc(O)c(O)c(O)c1 [compound 26, (-)-Gallocatechin gallate] and report it.
Resp: >500 µM

Req: Find the recorded TC50 (concentration reducing cell viability by 50%) belonging to O=c1c(O[C@@H]2O[C@H](CO)[C@H](O)[C@H](O)[C@H]2O)c(-c2ccc(O)c(O)c2)oc2cc(O)cc(O)c12 [compound 19, Hyperoside] and report it.
Resp: >500 µM

Req: Find the recorded TC50 (concentration reducing cell viability by 50%) belonging to O=c1c(O[C@@H]2O[C@H](CO)[C@@H](O)[C@H](O)[C@H]2O)c(-c2ccc(O)cc2)oc2cc(O)cc(O)c12 and report it.
Resp: >500 µM

Req: Find the recorded TC50 (concentration reducing cell viability by 50%) belonging to O=c1cc(-c2ccc(O)c(O)c2)oc2cc(O)cc(O)c12 and report it.
Resp: >300 µM

Req: Find the recorded TC50 (concentration reducing cell viability by 50%) belonging to O=c1cc(-c2ccccc2)oc2cc(O)cc(O)c12 and report it.
Resp: 168.50 ± 12.06 µM
